- assay-system: Sucrase-isomaltase, intestinal (Rattus norvegicus, UniProt P23739)
- Sequence (P23739 1-1013 limits assumed): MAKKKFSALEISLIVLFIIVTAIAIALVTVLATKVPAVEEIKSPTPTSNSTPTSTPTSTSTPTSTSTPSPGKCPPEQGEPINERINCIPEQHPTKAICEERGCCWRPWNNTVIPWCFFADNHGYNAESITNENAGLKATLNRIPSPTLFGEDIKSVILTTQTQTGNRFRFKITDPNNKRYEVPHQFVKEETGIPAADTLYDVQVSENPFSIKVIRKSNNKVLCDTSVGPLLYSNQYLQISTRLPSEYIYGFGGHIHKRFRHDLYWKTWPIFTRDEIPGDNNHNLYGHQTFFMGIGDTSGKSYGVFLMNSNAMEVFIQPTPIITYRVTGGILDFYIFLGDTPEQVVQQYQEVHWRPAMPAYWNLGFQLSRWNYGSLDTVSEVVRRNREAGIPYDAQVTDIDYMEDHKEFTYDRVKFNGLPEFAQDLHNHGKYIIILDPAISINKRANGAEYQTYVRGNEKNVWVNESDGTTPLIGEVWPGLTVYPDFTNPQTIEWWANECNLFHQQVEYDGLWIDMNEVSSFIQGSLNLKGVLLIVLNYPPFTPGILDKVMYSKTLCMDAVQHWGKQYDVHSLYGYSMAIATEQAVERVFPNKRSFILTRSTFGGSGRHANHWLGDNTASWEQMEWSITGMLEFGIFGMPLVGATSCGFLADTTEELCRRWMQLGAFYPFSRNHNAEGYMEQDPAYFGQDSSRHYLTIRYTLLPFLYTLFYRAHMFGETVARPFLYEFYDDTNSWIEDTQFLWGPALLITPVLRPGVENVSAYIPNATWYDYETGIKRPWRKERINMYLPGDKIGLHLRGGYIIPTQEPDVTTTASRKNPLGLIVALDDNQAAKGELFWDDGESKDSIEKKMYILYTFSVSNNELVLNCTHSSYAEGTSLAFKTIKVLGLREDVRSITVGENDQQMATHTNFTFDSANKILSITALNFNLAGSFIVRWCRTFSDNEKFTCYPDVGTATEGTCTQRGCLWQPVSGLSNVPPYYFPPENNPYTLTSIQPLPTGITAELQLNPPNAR
- Sequence (P23739 1014-1841 limits assumed): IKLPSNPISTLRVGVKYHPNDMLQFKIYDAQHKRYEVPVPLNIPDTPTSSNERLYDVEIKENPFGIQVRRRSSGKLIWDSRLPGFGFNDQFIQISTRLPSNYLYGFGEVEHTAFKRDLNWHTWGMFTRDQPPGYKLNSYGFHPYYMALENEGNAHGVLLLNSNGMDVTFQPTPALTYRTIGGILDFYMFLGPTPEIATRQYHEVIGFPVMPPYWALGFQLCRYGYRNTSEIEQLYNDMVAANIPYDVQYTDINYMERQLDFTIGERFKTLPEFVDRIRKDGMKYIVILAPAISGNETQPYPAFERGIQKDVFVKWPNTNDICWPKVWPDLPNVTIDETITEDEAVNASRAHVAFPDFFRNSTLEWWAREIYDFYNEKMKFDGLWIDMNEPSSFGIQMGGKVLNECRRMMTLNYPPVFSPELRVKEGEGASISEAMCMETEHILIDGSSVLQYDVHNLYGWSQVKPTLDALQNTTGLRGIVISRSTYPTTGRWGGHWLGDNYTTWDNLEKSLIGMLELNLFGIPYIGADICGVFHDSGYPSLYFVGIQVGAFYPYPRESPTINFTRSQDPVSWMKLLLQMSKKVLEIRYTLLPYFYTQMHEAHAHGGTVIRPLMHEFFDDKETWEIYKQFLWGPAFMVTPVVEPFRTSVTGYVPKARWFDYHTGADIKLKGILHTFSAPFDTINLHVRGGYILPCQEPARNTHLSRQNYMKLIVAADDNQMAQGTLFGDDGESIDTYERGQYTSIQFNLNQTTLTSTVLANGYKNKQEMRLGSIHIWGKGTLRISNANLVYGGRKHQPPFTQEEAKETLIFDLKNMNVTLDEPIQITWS

# query-smiles, Ki / µM
data = [
    ("CC(=O)Oc1ccc(/C=C/C(=O)NC[C@@H]2O[C@H](CO)[C@@H](O)[C@H](O)[C@H]2O)cc1OC(C)=O", 17.1),
]

* * *

Here we list compounds with their recorded pIC50 when tested on Alpha-glucosidase MAL12 (Saccharomyces cerevisiae S288c).
Sequence (P53341 whole entry): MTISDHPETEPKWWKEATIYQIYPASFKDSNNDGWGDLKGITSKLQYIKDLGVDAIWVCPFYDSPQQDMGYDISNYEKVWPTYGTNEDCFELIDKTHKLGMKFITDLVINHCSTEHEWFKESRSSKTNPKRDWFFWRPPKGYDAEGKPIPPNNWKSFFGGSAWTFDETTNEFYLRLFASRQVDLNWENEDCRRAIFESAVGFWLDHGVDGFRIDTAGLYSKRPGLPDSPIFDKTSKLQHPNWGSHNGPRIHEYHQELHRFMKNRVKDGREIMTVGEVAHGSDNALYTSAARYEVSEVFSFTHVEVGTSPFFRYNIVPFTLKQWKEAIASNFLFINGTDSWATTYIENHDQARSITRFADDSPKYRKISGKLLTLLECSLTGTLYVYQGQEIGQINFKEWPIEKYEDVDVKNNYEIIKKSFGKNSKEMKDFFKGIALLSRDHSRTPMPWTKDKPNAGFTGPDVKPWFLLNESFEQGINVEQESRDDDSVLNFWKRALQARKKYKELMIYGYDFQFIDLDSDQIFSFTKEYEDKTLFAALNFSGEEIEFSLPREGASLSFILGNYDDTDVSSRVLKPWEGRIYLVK
pIC50: −log10 of the molar value.

# query-smiles, assay-system, pIC50
measured = [
    ("OC[C@H]1O[C@@H](CNCc2ccc(F)cc2)[C@H](O)[C@@H](O)[C@@H]1O", "Alpha-glucosidase MAL12 (Saccharomyces cerevisiae S288c)", 3.94),
    ("OC[C@H]1O[C@@H](CNC/C=C/c2ccccc2)[C@H](O)[C@@H](O)[C@@H]1O", "Alpha-glucosidase MAL12 (Saccharomyces cerevisiae S288c)", 3.93),
    ("CC(=O)Oc1ccc(C(=O)NC[C@@H]2O[C@H](CO)[C@@H](O)[C@H](O)[C@H]2O)cc1", "Alpha-glucosidase MAL12 (Saccharomyces cerevisiae S288c)", 4.02),
    ("Cc1ccc(S(=O)(=O)NC[C@@H]2O[C@H](CO)[C@@H](O)[C@H](O)[C@H]2O)cc1", "Alpha-glucosidase MAL12 (Saccharomyces cerevisiae S288c)", 3.99),
    ("COc1cc(/C=C/C(=O)NC[C@@H]2O[C@H](CO)[C@@H](O)[C@H](O)[C@H]2O)ccc1O", "Alpha-glucosidase MAL12 (Saccharomyces cerevisiae S288c)", 3.99),
]

The measured values listed here are drawn from ChEMBL document CHEMBL2413064.
